system: contraction of the aorta strip caused by KCl; assay: Vasodilating action: inhibition of contraction of rabbit aorta strip caused by KCl; type: cell-based; details: Oryctolagus cuniculus, compound 10^-5 M, KCl 60 mM, 15 min pretreatment, read-out: Inhibitory percent against contraction, KCl
inhibition at 10 µM below 40% gives Not met; inhibition at 10 µM at or above it gives Met.

• COc1ccccc1N1CCN(CCCC2Sc3cccc(C)c3NC2=O)CC1 (stereo not drawn) = Not met
• O=C1Nc2ccccc2SC1CCCN1CCN(c2ccc(F)cc2)CC1 (stereo not drawn) = Met
• Cc1cc(C)c2c(c1)SC(CCCN1CCN(c3ccc(F)cc3)CC1)C(=O)N2 (stereo not drawn) = Met
• COc1ccccc1N1CCN(CCCC2Sc3cccc(OC)c3NC2=O)CC1 (stereo not drawn) = Not met
• O=C1Nc2cc(C(F)(F)F)ccc2SC1CCCN1CCN(c2ccc(F)cc2)CC1 (stereo not drawn) = Met
• Cc1cccc(N2CCN(CCCC3Sc4cccc(C)c4NC3=O)CC2)c1 (stereo not drawn) = Met
• COc1cccc2c1NC(=O)C(CCCN1CCN(c3ccccc3)CC1)S2 (stereo not drawn) = Not met

====

system: contraction depending on intracellular Ca^++; experiment: Intracellular Ca++ antagonism: inhibition of phenylephrine contraction of aorta strip in Ca++-free EGTA solution; type: cell-based, rabbit; settings: Oryctolagus cuniculus; compound 10^-6 M; phenylephrine 10^-6 M; Ca++ 0 mM, EGTA 5 mM; read-out: Inhibitory percent (contraction depending on intracellular Ca++)
Endpoint Label: inhibition at 1 µM (%)

* Cc1cc(C)c2c(c1)SC(CCCN1CCN(c3ccc(F)cc3)CC1)C(=O)N2 (stereo not drawn) | 97
* Cc1cc2c(cc1C)SC(CCCN1CCN(c3ccc(F)cc3)CC1)C(=O)N2 (stereo not drawn) | 66
* Cc1cccc2c1NC(=O)C(CCCN1CCN(c3ccc(F)cc3)CC1)S2 (stereo not drawn) | 100
* Cc1cccc2c1NC(=O)C(CCCN1CCN(c3ccc(Cl)cc3)CC1)S2 (stereo not drawn) | 30
* Cc1cccc2c1NC(=O)C(CCCN1CCN(c3cccc(Cl)c3)CC1)S2 (stereo not drawn) | 100
* COc1ccccc1N1CCN(CCCC2Sc3cc(C)cc(C)c3NC2=O)CC1 (stereo not drawn) | 100

====

Test system: contraction of the aorta strip caused by KCl
Assay: Vasodilating action: inhibition of contraction of rabbit aorta strip caused by KCl
Assay type: cell-based
Settings: Oryctolagus cuniculus, compound 10^-5 M, KCl 60 mM, 15 min pretreatment, read-out: Inhibitory percent against contraction, KCl
Description: A spiral strip of aorta of a rabbit (2-3 mm width, about 3 cm length) was allowed to equilibrate by hanging under 2 g force in a Krebs-Henseleit solution. The solution was saturated with a mixture gas of 97% O2 --3% CO2 which was warmed to 37° C. […]
Decide using inhibition at 10 µM: a value greater than or equal to 50% is y, a smaller one is n.

* COc1ccccc1N1CCN(CCCC2Sc3ccc(Cl)cc3NC2=O)CC1 (centres unmarked) [Example 8] | n
* O=C1Nc2ccccc2SC1CCCN1CCN(c2ccccc2)CC1 (centres unmarked) [Example 2] | y
* O=C1Nc2ccccc2SC1CCCCN1CCN(c2ccc(F)cc2)CC1 (centres unmarked) [Example 38] | n
* COc1ccc2c(c1)SC(CCCN1CCN(c3ccccc3OC)CC1)C(=O)N2 (centres unmarked) [Example 6] | n
